- Tested on: OVCAR-5
- assay details: NCI tumour cell line growth inhibition, 48 h
Activity calls are given as the source filed them. No stated cut-off is given here; in the data, active = GI50 up to about 1.1 µM and inactive = higher. Non-standard residues stand in square brackets, D forms with d. Residues, ends and D or L forms follow the SMILES beside them. *: point of attachment. X30 = COC1=CC(=O)N(C(=O)[C@@H](O*)C(C)C)[C@H]1Cc1ccccc1; NMeL = CN[C@@H](CC(C)C)C(=O)O; Cbz = O=C(OCc1ccccc1)*
The compounds listed here are annotated with their GI50.

Some solved entries appear below for comparison.
compound	GI50
CC(C)NC(=O)N(Nc1ccccc1)C(C)(C)C	> 100 µM (inactive)
COc1cc(OC)c(OC)cc1/C=C\c1ccnc2ccccc12	7.23 µM (inactive)
O=C(NN=C1NCCCCN1)Nc1ccc(Cl)cc1	> 100 µM (inactive)

Using the record for "CC(C)(CO[C@H]1C[C@H]2CC[C@@]1(C)C2(C)C)[N+](=O)[O-]" , report its GI50.
16.8 µM (inactive)

Try this compound too: "COC(=O)c1cnc(Cl)cn1"
58.3 µM (inactive)

Note, next up: COC1=CC(=O)N(C(=O)[C@@H](OC(=O)[C@@H]2CCCN2C(=O)[C@@H]2CCCN2C(=O)[C@H](CC(C)C)N(C)C(=O)[C@@H](NC(=O)[C@@H](NC(=O)OCc2ccccc2)C(C)C)C(C)C)C(C)C)[C@H]1Cc1ccccc1 (Cbz-VV[NMeL]PP-X30)
> 100 µM (inactive)

Also CC(=O)C1C(=O)C(=O)N(CCN2C(=O)C(=O)C(C(C)=O)C2=O)C1=O (stereo not given) , if possible.
> 100 µM (inactive)

Please answer likewise for "S=C1NCCN1C(=S)Nc1ccccc1"
> 100 µM (inactive)

// next record "Cc1sc2ccccc2[n+]1CCC(=O)O"
> 100 µM (inactive)

Entry to check: "NS(=O)(=O)c1nnc(NC(=O)C23CC4CC(CC(C4)C2)C3)s1"
> 100 µM (inactive)

---

- Test system: UACC-257
- assay details: NCI tumour cell line growth inhibition, 48 h
The source made the active and inactive calls. Rule as the data show it: active = GI50 up to about 1.1 µM and inactive = higher.
Below, each of the compounds is paired with its reported GI50 value.

> print(dat)
                                   compound           meas.value
1                    O=C1C2CCN(CC2)C1(CO)CO   18.6 µM (inactive)
2  CC(=O)NNc1nc(C)c(C(/C=C/c2ccc3c(c2)OCO3)=N/Nc2ccccc2)s1  > 100 µM (inactive)
3                   S=C1NCCN1C(=S)Nc1ccccc1   96.2 µM (inactive)
4                 CCN(CC(=O)O)C(=O)c1cccnc1  > 100 µM (inactive)
5  C/C(CN1C(=O)c2ccccc2C1=O)=N\NS(=O)(=O)c1ccc(Cl)cc1  > 100 µM (inactive)

What measured GI50 is associated with "O=C(N/N=C(COc1cccc(Cl)c1)\N=C\c1ccncc1)c1ccncc1" on UACC-257?
> 100 µM (inactive)

Next: Cc1ccc(NC(=O)C(=O)C2NC(=S)NC2=O)c([N+](=O)[O-])c1 (stereo unspecified)
> 100 µM (inactive)

---

- Tested on: KM12
- assay details: NCI tumour cell line growth inhibition, 48 h
Activity calls are given as the source filed them. Cut-off read from the data, not from the text of the source: active = GI50 up to about 1.1 µM and inactive = higher.
The categories you may choose from are true (1) (active), false (0) (inactive)

See these solved cases before continuing.
> print(dat)
                                   compound  target.or.test.system  class.name
1  Cc1cc(O)nc(NN2C(Cl)C(=O)C2c2ccc(Cl)cc2)n1 (stereo not given)                   KM12   false (0)
2  Clc1ccc(/C=C/c2nc(-c3ccc(Cl)cc3)cn3c2nc2ccccc23)cc1                   KM12   false (0)
3  COc1ccc(C(C2=C(O)COC2=O)c2cc3c(cc2O)OCO3)cc1OC (stereo not given)                   KM12   false (0)
4  CC(=O)Nc1ccc(NS(=O)(=O)c2ccc3nc(C)n(NS(=O)(=O)c4ccc(NC(C)=O)cc4)c(=O)c3c2)cc1                   KM12   false (0)
5  C[C@]12C[C@@H](c3ccccc3)Nc3ccccc3N1C(c1ccccc1)=NO2                   KM12   false (0)

What did this assay record as the result for "CC(C)(CO[C@H]1C[C@H]2CC[C@@]1(C)C2(C)C)[N+](=O)[O-]" ?
false (0)

Another compound: "O=C1/C(=C/c2ccccc2)CCc2ccc([N+](=O)[O-])cc21"
false (0)

Consider next the compound COCC1C(=O)c2cc3c(cc2C12C=CC1(C=C2)OCCO1)OCO3 (stereo not given) in the same way.
false (0)

Another: "O=c1[nH]nc(-c2ccccc2)n1/N=C/c1cccs1"
false (0)

Now give it for COc1cc2cc(C(=O)N3CC(CCl)c4c3cc(NCCN)c3ccccc43)[nH]c2c(OC)c1OC (stereo not given) too.
true (1)

---

# maps each entry to its GI50
- Test system: SNB-19
- assay details: NCI tumour cell line growth inhibition, 48 h
Activity calls are given as the source filed them. No stated cut-off is given here; in the data, active = GI50 up to about 1.1 µM and inactive = higher.

> print(dat)
                                   compound           meas.value
1                     O=C(O)CCN1C(=S)CSC1=S  > 100 µM (inactive)
2  CC1=NNC(=O)C1C1CC(c2c[nH]c3ccccc23)=NNC1=S (stereo unspecified)  > 100 µM (inactive)
3  Cc1cc2c(cc1C(=O)CCC(=O)O)CC1(C2)Cc2cc(C)c(C(=O)CCC(=O)O)cc2C1  > 100 µM (inactive)
4  CCc1[nH]c(=O)nc(N)c1-c1ccc(N2CCCCC2)c([N+](=O)[O-])c1  > 100 µM (inactive)
5  C=C(C)c1cc(C(C)(C)C)cc(C(=C)C)c1S(C)(=O)=O  > 100 µM (inactive)

Then there is this compound:
Any idea what its GI50 is? The compound is "N=C1/C(=C/c2ccc(F)cc2)C(=O)N=C2SC=NN12"
> 100 µM (inactive)

---

- System: Hs-578T
- assay details: NCI tumour cell line growth inhibition, 48 h
Active and inactive are the calls of the source. No stated cut-off is given here; in the data, active = GI50 up to about 1.1 µM and inactive = higher.
Result category, one only: yes for active, no for inactive

Some solved entries appear below for comparison.
> print(dat)
                                   compound  class.name
1  CCC[C@H](O)[C@@H](CNc1cc(NC(C)=O)nc(NC(C)=O)n1)N(Cc1ccccc1)Cc1ccccc1          no
2  CN(NC(=O)/C(=C/c1ccc(Cl)cc1)NC(=O)c1ccccc1)c1cn[nH]c(=O)c1Cl          no
3  COc1cc2cc(C(=O)N3CC(CCl)c4c3cc(NCCN)c3ccccc43)[nH]c2c(OC)c1OC (stereo not given)         yes

Recorded call for O=C(CCN1CCN2c3ccccc3CCC2C1)c1ccc(F)cc1 (stereo not given) ?
no

Please do the same for COc1cccc(C2c3cc4c(cc3OC(N3CCCCC3)C2C)OCO4)c1O (stereo not given) as well.
no

---

- System: A498
- assay details: NCI tumour cell line growth inhibition, 48 h
Calls of active or inactive are those of the source. Cut-off read from the data, not from the text of the source: active = GI50 up to about 1.1 µM and inactive = higher.
recorded metric: GI50

For the molecule "CCOC(=O)c1c(N2CCCC2)[nH]c(=O)c(C(c2cccs2)c2c(O)c(C(=O)OCC)c(N3CCCC3)[nH]c2=O)c1O" , what GI50 is on record?
> 100 µM (inactive)

---

- System: NCI-H460
- assay details: NCI tumour cell line growth inhibition, 48 h
Activity calls are given as the source filed them. No stated cut-off is given here; in the data, active = GI50 up to about 1.1 µM and inactive = higher.
Returns: one label drawn from active, inactive

Illustrative cases are given below, each with its answer.
> print(dat)
                                   compound  target.or.test.system  class.name
1  COc1ccc2c(c1)CCCN2CCCCCCCCCCN(CCC(C)C)CCC(C)C               NCI-H460    inactive
2  COCC1C(=O)c2cc3c(cc2C12C=CC1(C=C2)OCCO1)OCO3 (centres undefined)               NCI-H460    inactive
3  CCN(CC)CCC(=O)Nc1ccc2c(c1)C(=O)c1ccc(NC(=O)CCN(CC)CC)cc1C2=O               NCI-H460    inactive
4  O=C(Cc1csc(-c2nc(CC(=O)NNc3ccccc3)cs2)n1)NNc1ccccc1               NCI-H460    inactive
5  COc1ccc(N2C(=O)C3c4[nH]c5c(C)cccc5c4C4CCC(C(C)C)CC4C3C2=O)cc1 (centres undefined)               NCI-H460    inactive

Field: outcome | Entry: CC(=O)OCC1OC(n2c(-c3ccccc3)c(/N=N/c3ccc(C)cc3)c(C)c(C#N)c2=S)C(OC(C)=O)C(OC(C)=O)C1OC(C)=O (centres undefined)
inactive

Please give the result for "COc1ccc(OC)c2sc(N3C(=O)/C(=C/c4ccc(N(C)C)cc4)N=C3c3ccccc3)nc12" too.
inactive

# iterate: CCc1c(OC(C)=O)c2c(NC3OC(COC(C)=O)C(OC(C)=O)C(OC(C)=O)C3OC(C)=O)nc(OC)nc2oc1=O (centres undefined)
inactive

Continue with "O=C1N(C2CCCCC2)C(=O)N1C1CCCCC1"
active

Data provenance is ChEMBL document CHEMBL1201862.
